- TEST NAME: acute toxicity test in mice (Litchfield and Wilcoxon)
- Type: in vivo, mouse
- EXPERIMENTAL CONTEXT: mouse, in vivo, po., 14 days observation
Reported values of LD50 at 336 h for individual entries

Use these answered entries as a reference point.
>  <COMPOUND>
CCCCNCC(O)CO/N=C1\CCCCCC\C1=C/c1ccccc1 (racemic)

>  <LD50 at 336 h>
> 1000 mg/kg

$$$$
>  <COMPOUND>
COc1ccc(/C=C2\CCCC\C2=N/OCC(O)CNCCCN(C)C)cc1 (racemic)

>  <LD50 at 336 h>
> 1000 mg/kg

$$$$
>  <COMPOUND>
CN(CC(O)CO/N=C1\CCCC\C1=C/c1ccc(Cl)cc1)C1CCCCC1 (racemic)

>  <LD50 at 336 h>
> 1000 mg/kg

$$$$

Inquiry: Fill in: LD50 at 336 h of CCCN(CCC)CC(O)CO/N=C1\CCCC\C1=C/c1ccc(Cl)c(Cl)c1 (racemic) is ___
Reply text: > 1000 mg/kg
